These data points were gathered from patent US20230026163A1.

- assay_details: Maximal tolerance dose (MTD) experiment
- Assay type: in vivo, ICR mice
- test_context: both sexes, ICR, mouse, in vivo, iv, ICR mice, intravenous injection, second cycle; read-out: Maximum tolerated dose
attribute_measured: MTD at 5 days

Q: Please look at this compound and report its MTD at 5 days: O=[N+]([O-])c1ccc([C@@H](OP(=O)(N2CC2)N2CC2)C(F)(F)F)c2ccccc12
Ans: < 40 mg/kg

---

- assay_details: Maximal tolerance dose (MTD) experiment
- Format: in vivo, ICR mice
- test_context: both sexes, ICR, mouse, in vivo, iv, ICR mice, intravenous injection, first cycle; read-out: Maximum tolerated dose
attribute_measured: MTD at 5 days

Q: Kindly indicate its recorded MTD at 5 days. Item: O=[N+]([O-])c1ccc([C@@H](OP(=O)(N2CC2)N2CC2)C(F)(F)F)c2ccccc12
Ans: > 40 mg/kg
